condition-summary: cynomolgus monkey, in vivo, sc, 40 mg/kg
reported-metric: Hemoglobin (g/dL)
Return type: number; implicit unit g/dL.

The cases that follow already have their Hemoglobin on record.
Bench note: what Hemoglobin did TGATTTAATGGTTGCA [ISIS 569216] (cEt/MOE gapmer chemistry, further chemistry not given here) show? 12.8

Quick one: Hemoglobin of ISIS 584468: antisense compound targeted to human AR (CATTGTACTATGCCAG; 3-10-3 (S)-cEt gapmer, further chemistry not given here) ? 13.5

Request the reported Hemoglobin associated with TTGATTTAATGGTTGC [ISIS 560131] (MOE and (S)-cEt gapmer chemistry, further chemistry not given here) 13.1

# lookup: Hemoglobin of ISIS 583918: antisense compound targeted to human AR (AGTCGCGACTCTGGTA; 3-10-3 (S)-cEt gapmer, further chemistry not given here) 13.3

Data request, read-out Hemoglobin, for TGATTTAATGGTTGCA [ISIS 569213] (cEt/MOE gapmer chemistry, further chemistry not given here) 12.5

***
State the recorded Hemoglobin for this entry: TGATTTAATGGTTGCA [ISIS 569236] (cEt/MOE gapmer chemistry, further chemistry not given here) 13.1

Find the recorded Hemoglobin belonging to GATTTAATGGTTGCAA (cEt gapmer chemistry, further chemistry not given here) [ISIS 586124] and report it. 13.6

State the recorded Hemoglobin for this entry: ISIS 584269: antisense compound targeted to human AR (CCTTATGGATGCTGCT; 3-10-3 (S)-cEt gapmer, further chemistry not given here) 12.4

Dear colleague, I am looking for the recorded Hemoglobin of the following substance: ISIS 584149: antisense compound targeted to human AR (GTCAATATCAAAGCAC; 3-10-3 (S)-cEt gapmer, further chemistry not given here) 13.7

---

Measured percent inhibition of AR, 187.5 nM, listed per entry for reference.
Test system: AR mRNA
test: Dose-dependent antisense inhibition of human AR in HuVEC cells (electroporation, qRT-PCR RTS3559, IC50)
Format: cell-based
condition-summary: Table 35; 187.5 nM, HuVEC, electroporation, approximately 16 hours
Oligonucleotides are written 5' to 3', each unit as a sugar letter and its base; * is a phosphorothioate linkage, no mark a phosphodiester; rarer units and linkages stand in square brackets, end groups in braces. Plain capitals give the bases only. k = constrained ethyl (cEt); [5mC] = 5-methylcytosine; d = 2'-deoxy (DNA)
// units = %; emit number, no label

The examples below pair each entry with its known result.
Suppose we examine the substance 584138 (k[5mC]*kG*k[5mC]*dG*d[5mC]*dA*dG*dG*dT*dA*dG*dG*dA*kG*k[5mC]*k[5mC]; antisense) [compound 584138] ; what percent inhibition of AR, 187.5 nM value has been reported? 40

Which measured percent inhibition of AR, 187.5 nM value corresponds to 584149 (kG*kT*k[5mC]*dA*dA*dT*dA*dT*d[5mC]*dA*dA*dA*dG*k[5mC]*kA*k[5mC]) [compound 584149] ? 37

Looking for the measured percent inhibition of AR, 187.5 nM of 549372 (kA*kA*kG*dT*dT*dG*dT*dA*dG*dT*dA*dG*dT*k[5mC]*kG*k[5mC]) [compound 549372] , can you help? 28

Query (substance): 584163 (kG*kA*kA*d[5mC]*dA*dT*dT*dA*dT*dT*dA*dG*dG*k[5mC]*kT*kA) [compound 584163] ; field requested: percent inhibition of AR, 187.5 nM 37

Which value of percent inhibition of AR, 187.5 nM has been reported for 584179 (kA*kT*kG*dA*dG*dT*d[5mC]*d[5mC]*dT*d[5mC]*dA*dG*dA*kA*kT*k[5mC]; antisense) [compound 584179] in the records? 25

---
Give its percent inhibition of AR, 187.5 nM value. Item: 549458 (kG*kT*kT*dG*dA*dT*dT*dT*dA*dA*dT*dG*dG*kT*kT*kG) [compound 549458] 49

Please report the recorded percent inhibition of AR, 187.5 nM for 584162 (kT*kG*kG*dA*dT*dT*dG*dT*dA*dA*dA*dT*dT*kA*k[5mC]*kG; antisense) [compound 584162] . 45
